- Test System: Nucleotide-binding oligomerization domain-containing protein 2 (Homo sapiens, UniProt Q9HC29)
- Sequence (Q9HC29 whole entry, the tested form may be a part): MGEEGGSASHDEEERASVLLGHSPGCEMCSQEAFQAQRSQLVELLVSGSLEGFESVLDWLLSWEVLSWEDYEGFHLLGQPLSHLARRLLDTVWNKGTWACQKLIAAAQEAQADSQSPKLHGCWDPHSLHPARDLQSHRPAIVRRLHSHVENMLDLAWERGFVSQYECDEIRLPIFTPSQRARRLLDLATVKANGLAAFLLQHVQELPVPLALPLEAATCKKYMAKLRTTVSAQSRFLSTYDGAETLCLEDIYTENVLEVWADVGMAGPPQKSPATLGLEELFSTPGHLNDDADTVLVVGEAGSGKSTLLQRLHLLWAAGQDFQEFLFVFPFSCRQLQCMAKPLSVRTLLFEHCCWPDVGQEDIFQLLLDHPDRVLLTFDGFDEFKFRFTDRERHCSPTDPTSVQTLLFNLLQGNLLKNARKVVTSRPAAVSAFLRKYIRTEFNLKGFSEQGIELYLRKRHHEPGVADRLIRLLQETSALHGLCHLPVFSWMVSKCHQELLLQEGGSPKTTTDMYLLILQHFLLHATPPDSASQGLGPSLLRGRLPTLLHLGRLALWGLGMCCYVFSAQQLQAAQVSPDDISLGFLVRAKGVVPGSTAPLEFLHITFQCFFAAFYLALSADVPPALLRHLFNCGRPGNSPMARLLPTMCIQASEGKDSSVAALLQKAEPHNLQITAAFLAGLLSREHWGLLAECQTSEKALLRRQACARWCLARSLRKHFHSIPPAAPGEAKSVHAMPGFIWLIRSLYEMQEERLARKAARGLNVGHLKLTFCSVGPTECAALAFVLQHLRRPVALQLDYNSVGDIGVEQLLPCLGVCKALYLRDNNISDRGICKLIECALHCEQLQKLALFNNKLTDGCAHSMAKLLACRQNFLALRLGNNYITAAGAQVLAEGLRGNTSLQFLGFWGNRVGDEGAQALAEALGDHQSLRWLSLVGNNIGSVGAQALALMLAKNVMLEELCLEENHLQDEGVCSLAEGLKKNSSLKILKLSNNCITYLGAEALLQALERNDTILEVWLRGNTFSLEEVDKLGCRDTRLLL
- Experiment Notes: Antagonist activity at recombinant human NOD2 expressed in HEK293 cells assessed as inhibition of MDP-induced IL8 release measured after 24 hrs by HTRF assay
- Type: cell-based
Below: a set of entries, each annotated with reported IC50.

{"Cpd Smiles": "O=C(Cn1c(CCNC(=O)c2ccccc2)nc2ccccc21)Nc1ccc2c(c1)CCC2", "Reported Relation": "=", "IC50 [µM]": 3.3}
{"Cpd Smiles": "CCc1ccc(S(=O)(=O)Nc2cc(-n3c(C)nc4ccccc4c3=O)ccc2F)s1", "Reported Relation": ">", "IC50 [µM]": 50}

----------
Below: a set of entries, each annotated with reported pIC50.
- Test System: Nucleotide-binding oligomerization domain-containing protein 2 (Homo sapiens, UniProt Q9HC29)
- Experiment Notes: Antagonist activity at NOD2 in HEK-Blue hNOD2 cells assessed as inhibition of MDP-induced NFkappaB activation-mediated SEAP release preincubated for 3 hrs followed by MDP addition and measured after 20 hrs by spectrophotometric method
- Assay type: cell-based
pIC50: −log10 of the molar value.

{"Cpd Smiles": "O=C(NCCCOc1ccc(C(F)(F)F)cc1)c1cc2nc[nH]c(=O)c2cc1-c1cccc(Cl)c1", "pIC50": 6.08}
{"Cpd Smiles": "O=C(NCCCOc1ccc(C(F)(F)F)cc1)c1cc2ncn(CC(=O)N3CCCC(F)(F)C3)c(=O)c2cc1-c1cccc(Cl)c1", "pIC50": 6.11}
{"Cpd Smiles": "CN(C)c1cccc(Oc2cc3c(=O)n(CC(=O)N4CCCC(F)(F)C4)cnc3cc2NC(=O)COCc2ccc(C(F)(F)F)cc2)c1", "pIC50": 6.18}
{"Cpd Smiles": "O=C(NCCCOc1ccc(C(F)(F)F)cc1)c1cc2ncn(CC(=O)N3CCCCC3)c(=O)c2cc1-c1cccc(Cl)c1", "pIC50": 6.10}
{"Cpd Smiles": "CN(C)c1cccc(Oc2cc3c(=O)n(CC(=O)N4CCC(F)CC4)cnc3cc2NC(=O)COCc2ccc(C(F)(F)F)cc2)c1", "pIC50": 5.95}

----------
- Test System: Nucleotide-binding oligomerization domain-containing protein 2 (Homo sapiens, UniProt Q9HC29)
- Experiment Notes: Antagonist activity at NOD2 in HEK-Blue hNOD2 cells assessed as inhibition of MDP-induced NFkappaB activation-mediated SEAP release preincubated for 3 hrs followed by MDP addition and measured after 20 hrs by spectrophotometric method
- Assay type: cell-based
pIC50: −log10 of the molar value.
Measured Parameter: pIC50

{"Cpd Smiles": "CN(C)c1cccc(Oc2cc3c(=O)n(CC(=O)N4CCC(F)(F)CC4)cnc3cc2NC(=O)COCc2ccc(C(F)(F)F)cc2)c1", "Measured Result": 5.93}
{"Cpd Smiles": "CN(C)c1cccc(Oc2cc3c(=O)[nH]cnc3cc2NC(=O)COCc2ccc(C(F)(F)F)cc2)c1", "Measured Result": 6.10}
{"Cpd Smiles": "COC(=O)Cn1cnc2cc(NC(=O)COCc3ccc(C(F)(F)F)cc3)c(Oc3cccc(N(C)C)c3)cc2c1=O", "Measured Result": 6.00}
{"Cpd Smiles": "COC(=O)Cn1cnc2cc(C(=O)NCCCOc3ccc(C(F)(F)F)cc3)c(-c3cccc(Cl)c3)cc2c1=O", "Measured Result": 6.00}

meta.source: ChEMBL document CHEMBL4706575
